Listed here are binders together with their documented percent of cellular association.
# TARGET_DESC: T1, HER2 (human epidermal growth factor receptor 2) on cells (human, UniProt P04626 23-1255)
# T1 construct: whole, on cells; also called ERBB2; HER2 receptor
# EXPERIMENT_SUMMARY: flow cytometry (Cy5), MDA-MB-231 parental cells (HER2 lo, control), 0.5 h
Enter your answer as a number in %; do not include the unit.

Examples with answers:
BHALys[Lys]2[Lys]4[((α-NH-COPEG24NH-COPEG4(PhMeTz)/TCO-PEG3NH-COPEG24NH-Glu-DBCO/N3-Nanobody)1(α-Lys(α-NHCy5)(ε-NHDFO))1(α-NH2)2)(ε-NH-COPEG1000)4], G2, … (VHH, # (unnatural amino acid, p-azido-phenylalanine, after ...QVTVSS) clicked to the DBCO of linker Compound 51, whose TCO is joined to the tetrazine on the surface of the G2 lysine dendrimer Compound 25 (Cy5, DFO, 4 PEG1000), also called BHA-G2-PEG1000 + NB) VHH: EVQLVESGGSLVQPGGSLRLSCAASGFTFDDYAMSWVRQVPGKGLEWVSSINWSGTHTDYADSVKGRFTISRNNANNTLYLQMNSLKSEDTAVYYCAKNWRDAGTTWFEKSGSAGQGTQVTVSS	30.8
BHA[Lys]2[Lys]4[Lys]8[Lys]16[((α-NH-COPEG24NH-COPEG4(PhMeTz)/TCO-PEG3NH-COPEG24NH-Glu-DBCO/N3-Nanobody)1(α-Lys(α-NHCy5)(ε-NHDFO))1(α-NH2)14(ε-NH-COPEG1000)16], … (VHH, # (unnatural amino acid, p-azido-phenylalanine, after ...QVTVSS) clicked to the DBCO of linker Compound 51, whose TCO is joined to the tetrazine on the surface of the G4 lysine dendrimer Compound 28 (Cy5, DFO, 16 PEG1000), One nanobody on each dendrimer; also called single 2D3-dendrimer conjugate; BHA-G4-PEG1000 + NB) VHH: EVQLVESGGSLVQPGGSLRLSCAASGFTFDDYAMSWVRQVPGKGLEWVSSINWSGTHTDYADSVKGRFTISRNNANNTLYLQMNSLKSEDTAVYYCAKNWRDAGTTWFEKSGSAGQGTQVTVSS	20
BHA[Lys]2[Lys]4[Lys]8[Lys]16[Lys]32[((α-NH-COPEG24NH-COPEG4(PhMeTz)/TCO-PEG3NH-COPEG24NH-Glu-DBCO/N3-Nanobody)1(α-Lys(α-NHCy5)(ε-NHDFO))1(α-NH2)30(ε-NH-COPEG100 … (VHH, # (unnatural amino acid, p-azido-phenylalanine, after ...QVTVSS) clicked to the DBCO of linker Compound 51, whose TCO is joined to the tetrazine on the surface of the G5 lysine dendrimer Compound 29 (Cy5, DFO, 32 PEG1000), also called BHA-G5-PEG1000 + NB) VHH: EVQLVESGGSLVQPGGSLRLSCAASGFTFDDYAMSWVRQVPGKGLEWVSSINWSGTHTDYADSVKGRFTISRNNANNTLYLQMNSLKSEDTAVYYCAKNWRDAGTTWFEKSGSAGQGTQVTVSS	17.5

In the following, a different binder is considered.
Note to self: percent of cellular association recorded for BHALys[Lys]2[Lys]4[Lys]8[((α-NH-COPEG24NH-COPEG4(PhMeTz)/TCO-PEG3NH-COPEG24NH-Glu-DBCO/N3-Nanobody)1(α-Lys(α-NHCy5)(ε-NHDFO))1(α-NH2)6)(ε-NH-COPEG1000)8], G3, … (VHH, # (unnatural amino acid, p-azido-phenylalanine, after ...QVTVSS) clicked to the DBCO of linker Compound 51, whose TCO is joined to the tetrazine on the surface of the G3 lysine dendrimer Compound 27 (Cy5, DFO, 8 PEG1000), also called BHA-G3-PEG1000 + NB) VHH: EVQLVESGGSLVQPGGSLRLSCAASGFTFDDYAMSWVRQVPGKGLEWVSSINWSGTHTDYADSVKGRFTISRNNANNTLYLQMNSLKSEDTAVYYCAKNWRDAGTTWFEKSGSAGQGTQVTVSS was 25.1
